Assay: Cytotoxicity against human normal oral epithelial cell assessed as reduction in cell viability incubated for 24 hrs by alamar blue assay
Format: toxicity, cell-based
Conditions: normal oral epithelial cells
Lab note: anything with IC50 at 24 h below 20 µM is marked Fulfilled; values at 20 µM or higher are marked Not fulfilled.

CN(C)c1ccc(/C=C/c2nc(O)c3ccccc3n2)cc1 | Not fulfilled

Input: Record O=c1[nH]c(/C=C/c2ccc(F)cc2)nc2ccccc12 : is its IC50 at 24 h strictly below 20 µM?
Output: Not fulfilled

Input: Please determine if O=c1[nH]c(/C=C/c2cccs2)nc2ccccc12 is below 20 µM in terms of IC50 at 24 h.
Output: Fulfilled

Input: State whether 20 µM exceeds IC50 at 24 h recorded for O=c1[nH]c(/C=C/c2ccc([N+](=O)[O-])cc2)nc2ccccc12 .
Output: Fulfilled

Input: Lab log: compare recorded IC50 at 24 h with 20 µM; is it strictly lower for COc1ccc(/C=C/c2nc3ccccc3c(=O)[nH]2)cc1 ?
Output: Fulfilled

Input: Determine if O=c1[nH]c(/C=C/c2c(F)c(F)c(F)c(F)c2F)nc2ccccc12 shows IC50 at 24 h strictly lower than 20 µM.
Output: Fulfilled

Input: Take the molecule O=c1[nH]c(/C=C/c2cccc(F)c2)nc2ccccc12 and say whether its IC50 at 24 h is less than 20 µM.
Output: Not fulfilled

Input: For this molecule, is IC50 at 24 h lower than 20 µM? C/C(=C\c1ccccc1)c1nc2ccccc2c(=O)[nH]1
Output: Fulfilled

Input: Report whether reported IC50 at 24 h is lower than 20 µM (strictly) for Cc1ccc(/C=C/c2nc(O)c3ccccc3n2)cc1
Output: Fulfilled

Input: Does the reported IC50 at 24 h of the following molecule sit strictly below 20 µM? O=c1[nH]c(/C=C/c2ccc(Cl)cc2)nc2ccccc12
Output: Fulfilled

Input: Please determine if N#Cc1ccc(/C=C/c2nc3ccccc3c(=O)[nH]2)cc1 is below 20 µM in terms of IC50 at 24 h.
Output: Not fulfilled

src = ChEMBL document CHEMBL5252579
